# testSummary: Cytotoxicity against human KBVIN cells by SRB assay
# Assay type: functional, cell-based
Recorded IC50, one value per entry.

Here are 4 molecules together with their reported answers.
COC(=O)[C@H]1C(/C=C/C(=O)c2ccc(O)cc2)=Cc2cc(OC)c(OC)cc2[C@H]1c1cc(OC)c(OC)c(OC)c1	5.17 µg/mL
COc1cc2c(cc1OC)[C@@H](c1cc(OC)c(OC)c(OC)c1)[C@H](C(=O)N1CCCC1)C(/C=C/C(=O)c1ccc(-c3ccccc3)cc1)=C2	16.9 µg/mL
COc1cc2c(cc1OC)[C@@H](c1cc(OC)c(OC)c(OC)c1)[C@H](C(=O)N1CCCC1)C(/C=C/C(=O)c1ccc(C3CCCCC3)cc1)=C2	12.3 µg/mL
COC(=O)[C@H]1C(/C=C/C(=O)c2ccc([N+](=O)[O-])cc2)=Cc2cc(OC)c(OC)cc2[C@H]1c1cc(OC)c(OC)c(OC)c1	23 µg/mL

Now let's try a different one.
[in] I have this molecule here, COc1cc([C@@H]2c3cc4c(cc3[C@@H](Nc3ccc([N+](=O)[O-])cc3)[C@H]3COC(=O)[C@H]23)OCO4)cc(OC)c1O , and I need its recorded IC50.
[out] 2.1 µg/mL

====

Recorded IC50, one value per entry.
# Test system: KB
# testSummary: Cytotoxicity against human KB cells by SRB assay
# Assay type: functional, cell-based
API: value field is a number in µg/mL; no unit string.

Here are 4 molecules together with their reported answers.
COC(=O)[C@H]1C(/C=C/C(=O)c2ccc(O)cc2)=Cc2cc(OC)c(OC)cc2[C@H]1c1cc(OC)c(OC)c(OC)c1	5.9
COC(=O)[C@H]1C(/C=C/C(=O)c2ccc([N+](=O)[O-])cc2)=Cc2cc(OC)c(OC)cc2[C@H]1c1cc(OC)c(OC)c(OC)c1	16
COc1cc2c(cc1OC)[C@@H](c1cc(OC)c(OC)c(OC)c1)[C@H](C(=O)N1CCCC1)C(/C=C/C(=O)c1ccc(C3CCCCC3)cc1)=C2	12.3
COc1cc([C@@H]2c3cc4c(cc3[C@@H](Nc3ccc([N+](=O)[O-])cc3)[C@H]3COC(=O)[C@H]23)OCO4)cc(OC)c1O	0.819

Now let's try a different one.
[in] I have this molecule here, COc1cc2c(cc1OC)[C@@H](c1cc(OC)c(OC)c(OC)c1)[C@H](C(=O)N1CCCC1)C(/C=C/C(=O)c1ccc(-c3ccccc3)cc1)=C2 , and I need its recorded IC50.
[out] 16.6

====

Recorded IC50, one value per entry.
# Test system: A549
# testSummary: Cytotoxicity against human A549 cells by SRB assay
# Format: functional, cell-based

Here are 4 molecules together with their reported answers.
COC(=O)[C@H]1C(/C=C/C(=O)c2ccc([N+](=O)[O-])cc2)=Cc2cc(OC)c(OC)cc2[C@H]1c1cc(OC)c(OC)c(OC)c1	16.8 µg/mL
COc1cc2c(cc1OC)[C@@H](c1cc(OC)c(OC)c(OC)c1)[C@H](C(=O)N1CCCC1)C(/C=C/C(=O)c1ccc(-c3ccccc3)cc1)=C2	24.6 µg/mL
COC(=O)[C@H]1C(/C=C/C(=O)c2ccc(O)cc2)=Cc2cc(OC)c(OC)cc2[C@H]1c1cc(OC)c(OC)c(OC)c1	6.79 µg/mL
COc1cc([C@@H]2c3cc4c(cc3[C@@H](Nc3ccc([N+](=O)[O-])cc3)[C@H]3COC(=O)[C@H]23)OCO4)cc(OC)c1O	0.113 µg/mL

[in] Query the reported IC50 for A549; item: COc1cc2c(cc1OC)[C@@H](c1cc(OC)c(OC)c(OC)c1)[C@H](C(=O)N1CCCC1)C(/C=C/C(=O)c1ccc(C3CCCCC3)cc1)=C2
[out] 12 µg/mL
